- MEASURED ON: T1, EsCas13d, nuclease-dead (Eubacterium siraeum, UniProt B0MS50, R295A;H300A;R849A;H854A)
- T1 sequence: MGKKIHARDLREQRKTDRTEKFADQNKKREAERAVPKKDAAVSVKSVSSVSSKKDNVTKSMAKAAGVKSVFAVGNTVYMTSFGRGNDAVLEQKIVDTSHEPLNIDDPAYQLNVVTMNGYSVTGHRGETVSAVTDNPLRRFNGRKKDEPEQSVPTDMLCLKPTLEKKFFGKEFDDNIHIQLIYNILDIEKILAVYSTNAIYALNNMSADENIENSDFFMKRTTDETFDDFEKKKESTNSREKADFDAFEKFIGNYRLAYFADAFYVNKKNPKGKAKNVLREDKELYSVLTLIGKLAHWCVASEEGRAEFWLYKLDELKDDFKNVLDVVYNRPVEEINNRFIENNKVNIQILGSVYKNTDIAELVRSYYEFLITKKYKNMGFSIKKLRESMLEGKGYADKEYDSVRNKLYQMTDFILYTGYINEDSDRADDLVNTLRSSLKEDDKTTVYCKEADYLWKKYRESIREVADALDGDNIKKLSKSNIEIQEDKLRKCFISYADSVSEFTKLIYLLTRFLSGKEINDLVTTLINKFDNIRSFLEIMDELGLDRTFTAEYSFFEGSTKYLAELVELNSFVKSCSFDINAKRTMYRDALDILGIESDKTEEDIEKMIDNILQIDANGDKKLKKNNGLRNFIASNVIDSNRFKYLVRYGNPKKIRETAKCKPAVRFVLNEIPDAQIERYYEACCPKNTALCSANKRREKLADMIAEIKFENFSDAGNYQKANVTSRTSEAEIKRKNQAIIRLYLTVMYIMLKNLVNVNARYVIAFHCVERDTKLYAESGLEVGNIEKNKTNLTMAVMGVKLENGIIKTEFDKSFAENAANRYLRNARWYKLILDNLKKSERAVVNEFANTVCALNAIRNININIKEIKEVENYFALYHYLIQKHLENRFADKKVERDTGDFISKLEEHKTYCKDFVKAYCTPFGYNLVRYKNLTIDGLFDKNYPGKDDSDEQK
- PROTOCOL TEXT: crRNA (strand 1, pre-loaded); Mg2+; 40 mM Tris-HCl pH 7.5, 150 mM NaCl, 6 mM MgCl2, 1 mM DTT, 0.1% Tween-20, 0.2 mg/ml BSA; 25 C; 10 min per concentration, then washed
- CONDITION SUMMARY: tags: His6-TwinStrep-SUMO cleaved; N-terminal SNAP kept (SNAP-Surface 488); label: 3' end held by stalled T7 RNA polymerase
# note: exactly 30 nM is not below, so it is criterion not met; use criterion met for Kd strictly under it

BINDER	LABEL VALUE
target 3 A5U,U22C (mixed) RNA 1: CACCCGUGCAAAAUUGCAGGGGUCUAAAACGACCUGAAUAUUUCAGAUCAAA RNA 2: GGGAAUGGAUCCACAUCUACGAAUUCGUUCUUGAUCUGAAAUAUUCUGGUCUGCAGAUCGGAAGAGCACACGU	criterion not met
target 2 MT 5'PFS UAC 3'PFS CAC (mixed) RNA 1: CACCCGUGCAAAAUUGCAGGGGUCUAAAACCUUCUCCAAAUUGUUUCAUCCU RNA 2: GGGAAUGGAUCCACAUCUACGAAUUCUACAGGAUGAAACAAUUUGGAGAAGCACAGAUCGGAAGAGCACACGU	criterion met
target 1 insA 3' of 13,insA 3' of 12 (mixed) RNA 1: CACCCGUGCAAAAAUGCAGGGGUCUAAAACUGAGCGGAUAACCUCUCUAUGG RNA 2: GGGAAUGGAUCCACAUCUACGAAUUCGUACCAUAGAGAGAGAUUAUCCGCUCACCGAGAUCGGAAGAGCACACGU	criterion met
target 1 insA 3' of 12,insG 3' of 7 (mixed) RNA 1: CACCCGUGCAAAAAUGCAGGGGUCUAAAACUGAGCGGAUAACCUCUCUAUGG RNA 2: GGGAAUGGAUCCACAUCUACGAAUUCGUACCAUAGAGAGGAUUAUCGCGCUCACCGAGAUCGGAAGAGCACACGU	criterion met
target 1 MT 5'PFS AAG 3'PFS AGG (mixed) RNA 1: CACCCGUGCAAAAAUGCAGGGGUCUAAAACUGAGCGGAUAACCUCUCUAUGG RNA 2: GGGAAUGGAUCCACAUCUACGAAUUCAAGCCAUAGAGAGGUUAUCCGCUCAAGGAGAUCGGAAGAGCACACGU	criterion not met
target 1 del14,del19 (mixed) RNA 1: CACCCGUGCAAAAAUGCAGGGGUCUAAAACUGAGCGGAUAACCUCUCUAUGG RNA 2: GGGAAUGGAUCCACAUCUACGAAUUCGUACCAAGAGGGUUAUCCGCUCACCGAGAUCGGAAGAGCACACGU	criterion not met
target 2 MT 5'PFS AAU 3'PFS UUC (mixed) RNA 1: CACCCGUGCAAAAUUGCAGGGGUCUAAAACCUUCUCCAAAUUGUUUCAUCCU RNA 2: GGGAAUGGAUCCACAUCUACGAAUUCAAUAGGAUGAAACAAUUUGGAGAAGUUCAGAUCGGAAGAGCACACGU	criterion met
target 2 MT 5'PFS GCA 3'PFS AGG (mixed) RNA 1: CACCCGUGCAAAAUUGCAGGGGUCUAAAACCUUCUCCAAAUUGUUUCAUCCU RNA 2: GGGAAUGGAUCCACAUCUACGAAUUCGCAAGGAUGAAACAAUUUGGAGAAGAGGAGAUCGGAAGAGCACACGU	criterion met

The values you see were collected from paper PMC10786891.
